# ASSAY_DETAILS: Biodistribution in ddY mice
# Format: in vivo
# SETUP_CONDITIONS: i.v. co-injection, 10 min
Marks after values point to notes of the source that are not given here.
Listed compounds paired with reported Radioactivity in Heart

Look over these answered cases.
* COCCOc1ccc2c(c1)ncn2-c1ccc2c([77Br])ccc(N3CCC(N)CC3)c2n1 [[^77Br]2] | 4.41 (0.27) %injected dose/gram tissue
* COCCOc1ccc2c(c1)ncn2-c1ccc2cccc(N3CCC(NC(=O)c4cccc([77Br])c4)CC3)c2n1 [[^77Br]3] | 2.70 (0.24) %injected dose/gram tissue

Please examine the following record next.
Suppose we examine the compound COCCOc1ccc2c(c1)ncn2-c1ccc2c([125I])ccc(N3CCC(N)CC3)c2n1 [[^125I]4, reference compound] ; what Radioactivity in Heart value has been reported?
4.27 (0.27) %injected dose/gram tissue

###

# ASSAY_DETAILS: Biodistribution in ddY mice
# Type: in vivo
# SETUP_CONDITIONS: i.v. co-injection, 4 h
Marks after values point to notes of the source that are not given here.
Listed molecules paired with reported Radioactivity in Large intestine

- COCCOc1ccc2c(c1)ncn2-c1ccc2c([77Br])ccc(N3CCC(N)CC3)c2n1 [[^77Br]2]: 53.70 (8.89) %injected dose/gram tissue
- COCCOc1ccc2c(c1)ncn2-c1ccc2cccc(N3CCC(NC(=O)c4cccc([77Br])c4)CC3)c2n1 [[^77Br]3]: 28.99 (2.21) %injected dose/gram tissue

Please examine the following record next.
Suppose we examine the molecule COCCOc1ccc2c(c1)ncn2-c1ccc2c([125I])ccc(N3CCC(N)CC3)c2n1 [[^125I]4, reference compound] ; what Radioactivity in Large intestine value has been reported?
51.43 (8.57) %injected dose/gram tissue

###

Listed compounds paired with reported Radioactivity in Spleen
# ASSAY_DETAILS: Biodistribution in ddY mice
# Type: in vivo
# SETUP_CONDITIONS: i.v. co-injection, 24 h
Marks after values point to notes of the source that are not given here.

Look over these answered cases.
- COCCOc1ccc2c(c1)ncn2-c1ccc2cccc(N3CCC(NC(=O)c4cccc([77Br])c4)CC3)c2n1 [[^77Br]3]: 0.72 (0.24) %injected dose/gram tissue
- COCCOc1ccc2c(c1)ncn2-c1ccc2c([125I])ccc(N3CCC(N)CC3)c2n1 [[^125I]4, reference compound]: 0.11 (0.09)^* %injected dose/gram tissue

Please examine the following record next.
Suppose we examine the compound COCCOc1ccc2c(c1)ncn2-c1ccc2c([77Br])ccc(N3CCC(N)CC3)c2n1 [[^77Br]2] ; what Radioactivity in Spleen value has been reported?
0.66 (0.77) %injected dose/gram tissue

###

# ASSAY_DETAILS: Biodistribution in ddY mice
# Format: in vivo
# SETUP_CONDITIONS: i.v. co-injection, 24 h
Marks after values point to notes of the source that are not given here.
EXPERIMENTAL_ENDPOINT: Radioactivity in Brain

- COCCOc1ccc2c(c1)ncn2-c1ccc2cccc(N3CCC(NC(=O)c4cccc([77Br])c4)CC3)c2n1 [[^77Br]3]: 0.20 (0.02) %injected dose/gram tissue

Suppose we examine the molecule COCCOc1ccc2c(c1)ncn2-c1ccc2c([77Br])ccc(N3CCC(N)CC3)c2n1 [[^77Br]2] ; what Radioactivity in Brain value has been reported?
0.07 (0.00) %injected dose/gram tissue
